# Tested on: calcium channel receptor (bovine cerebral cortex membranes)
# assaySummary: 3H-nitrendipine binding to cerebral cortex membranes (calcium channel receptor)
# studyConditions: drug added to human plasma
metric: effect on 3H-nitrendipine binding

INSERT INTO measurements (compound, assayresult) VALUES
  ('COCCOC(=O)C1=C(C)NC(C)=C(C(=O)OC(C)C)C1c1cccc([N+](=O)[O-])c1 (stereo not shown)', 'inhibition'),
  ('CC(Cc1ccccc1)NCCC(c1ccccc1)c1ccccc1 (stereo not shown)', 'inhibition');
